tested on: MIA PaCa-2 cells; assay: Growth inhibition activity on KRAS-G12C mutant cell line (MIA PaCa-2), CellTiter-Glo 3D; assay type: cell-based, human; details: Homo sapiens, MIA PaCa-2, 72 h, MIA PaCa-2, 3-day culture with compound
attribute-measured: pIC50
Note on pIC50: it is the negative log10 of concentration, concentration in mol/L.

Use the examples below as a reference point.
[[record]]
compound = "CO[C@H]1C[C@H](NC/C=C/C(=O)Nc2c(F)cc(C(=O)c3ccc4c(-c5cc6nc(C)n(C)c6cc5C(F)(F)F)cccn34)cc2F)C1"
system_under_test = "MIA PaCa-2 cells"
numeric_result = 6.89

[[record]]
compound = "Cc1nc2cc(-c3cccn4c(C(=O)c5cc(F)c(NC(=O)/C=C/CN[C@@H]6CCC[C@H](F)C6)c(F)c5)ccc34)c(C(F)(F)F)cc2n1C (racemic)"
system_under_test = "MIA PaCa-2 cells"
numeric_result = 6.55


Q) For MIA PaCa-2 cells, provide pIC50 of Cc1nc2cc(-c3cccn4c(C(=O)c5cc(F)c(NC(=O)/C=C/CNC6CCN(C)C(=O)C6)c(F)c5)ccc34)c(C(F)(F)F)cc2n1C (stereo not drawn) please.
A) 7.00

Q) What about CO[C@H]1CC[C@H](NC/C=C/C(=O)Nc2c(F)cc(C(=O)c3ccc4c(-c5c(C(F)(F)F)cc6c(nc(C)n6C)c5Cl)cccn34)c(F)c2F)CC1 ?
A) 7.04

Q) What about CO[C@H]1CC[C@H](NC/C=C/C(=O)Nc2c(F)cc(C(=O)c3cc(CC#N)c4c(-c5c(C)cc6c(nc(C)n6C)c5Cl)cccn34)cc2F)CC1 ?
A) 7.11

----------
tested on: MIA PaCa-2 cells; assay: Growth inhibition activity on KRAS-G12C mutant cell line (MIA PaCa-2), CellTiter-Glo 3D; format: cell-based, human; conditions: MIA PaCa-2, 3-day culture with compound
pIC50: −log10 of the molar value.
Quick rule: pIC50 of at least 7 means fulfilled, below that means not fulfilled.

[[record]]
compound = "Cc1nc2c(Cl)c(-c3cccn4c(C(=O)c5cc(F)c(NC(=O)/C=C/CNC6CCOCC6)c(F)c5)ccc34)c(C(F)(F)F)cc2n1C (single isomer, unassigned) [Example 57-2]"
label = "not fulfilled"

[[record]]
compound = "CCc1nc2c(-c3c(C(F)(F)F)cc4c(nc(C)n4C)c3OC)cccn2c1C(=O)c1cc(F)c(NC(=O)/C=C/CN[C@H]2CC[C@H](OC)CC2)c(F)c1 (single isomer, unassigned) [Example 102-2]"
label = "not fulfilled"

[[record]]
compound = "Cn1cnc2c(Cl)c(-c3cccn4c(C(=O)c5cc(F)c(NC(=O)/C=C/CNC(C)(C)C)c(F)c5)ccc34)c(Cl)cc21 (single isomer, unassigned) [Example 20-2]"
label = "fulfilled"

[[record]]
compound = "C=Cc1cc(C(=O)c2cc(F)c(NC(=O)/C=C/CNC3(C)CC3)c(F)c2)n2cccc(-c3c(OC)cc4c(nc(C)n4C)c3F)c12 (single isomer, unassigned) [Example 111-1]"
label = "fulfilled"


Attention now shifts to the item below.
Q) Is it the case that Cn1cnc2c(Cl)c(-c3cccn4c(C(=O)c5cc(F)c(NC(=O)/C=C/CNC(C)(C)C)c(F)c5)ccc34)c(Cl)cc21 (single isomer, unassigned) [Example 20-1] has pIC50 reaching or exceeding 7?
A) not fulfilled

----------
Here, each record is paired with measured pIC50 data.
system: MIA PaCa-2 cells; assay: Growth inhibition activity on KRAS-G12C mutant cell line (MIA PaCa-2), CellTiter-Glo 3D; type: cell-based, human; details: Homo sapiens, MIA PaCa-2, 72 h, MIA PaCa-2, 3-day culture with compound
Note on pIC50: it is the negative log10 of concentration, concentration in mol/L.

Use the examples below as a reference point.
[[record]]
smiles_data = "CO[C@H]1CC[C@H](NC/C=C/C(=O)Nc2c(F)cc(C(=O)c3ccc4c(-c5c(C(F)(F)F)cc6c(nc(CF)n6C)c5Cl)cccn34)cc2F)CC1"
system_under_test = "MIA PaCa-2 cells"
attribute_measured = "pIC50"
numeric_result = 7.17

[[record]]
smiles_data = "CCc1cc2c(nc(C)n2C)c(Cl)c1-c1cccn2c(C(=O)c3cc(F)c(NC(=O)/C=C/CNC4CCOCC4)c(F)c3)ccc12"
system_under_test = "MIA PaCa-2 cells"
attribute_measured = "pIC50"
numeric_result = 7.49

[[record]]
smiles_data = "CO[C@H]1CC[C@H](NC/C=C/C(=O)Nc2c(F)cc(C(=O)c3ccc4c(-c5c(C(F)F)cc6c(nc(C)n6C)c5Cl)cccn34)cc2F)CC1"
system_under_test = "MIA PaCa-2 cells"
attribute_measured = "pIC50"
numeric_result = 7.60

[[record]]
smiles_data = "Cc1nc2cc(-c3cccn4c(C(=O)c5cc(F)c(NC(=O)/C=C/CN[C@@H]6CCOC6)c(F)c5)ccc34)c(C(F)(F)F)cc2n1C"
system_under_test = "MIA PaCa-2 cells"
attribute_measured = "pIC50"
numeric_result = 7.00

[[record]]
smiles_data = "Cc1cc2c(ncn2C)c(C)c1-c1cccn2c(C(=O)c3cc(F)c(NC(=O)/C=C/CNC(C)(C)C)c(F)c3)ccc12"
system_under_test = "MIA PaCa-2 cells"
attribute_measured = "pIC50"
numeric_result = 6.92


Q) Recorded pIC50 for CO[C@H]1CC[C@H](NC/C=C/C(=O)Nc2c(F)cc(C(=O)c3c(C)nc4c(-c5cc6nc(C)n(C)c6cc5C(F)(F)F)cccn34)cc2F)CC1 , please?
A) 6.92

Q) What about CO[C@H]1CC[C@H](NC/C=C/C(=O)Nc2c(F)cc(C(=O)c3ccc4c(-c5c(C)cc6c(nc(CO)n6C)c5Cl)cccn34)cc2F)CC1 ?
A) 7.16

----------
Here, each record is paired with measured IC50 data.
molecular target: interaction between recombinant K-Ras4B G12C mutant protein and cRAF RAS-binding domain (cRAF-RBD) (Homo sapiens, UniProt P01116, G12C); assay: Inhibitory activity on interaction between KRAS G12C and cRAF (Alpha technology); conditions: GMPPNP-bound KRAS G12C incubated with compound at 25° C. for 1 hour, then cRAF-RBD; Alpha signal
Sequence (P01116 with tags, fused parts or gaps isoform P01116-2 G12C): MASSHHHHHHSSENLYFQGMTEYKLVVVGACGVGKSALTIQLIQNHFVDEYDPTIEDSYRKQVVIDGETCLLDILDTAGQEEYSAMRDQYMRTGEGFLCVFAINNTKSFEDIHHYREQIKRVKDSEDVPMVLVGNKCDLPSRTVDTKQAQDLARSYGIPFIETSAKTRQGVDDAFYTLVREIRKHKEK
Note: unit nM is implicit; provide only the numeric part.

Use the examples below as a reference point.
[[record]]
molecule = "Cc1nc2cc(-c3cccn4c(C(=O)c5cc(F)c(NC(=O)/C=C/CNC6CCCCC6CO)c(F)c5)ccc34)c(C(F)(F)F)cc2n1C (stereo not drawn)"
attribute_measured = "IC50"
numeric_result = 76

[[record]]
molecule = "COc1cc2c(c(F)c1-c1cccn3c(C(=O)c4cc(F)c(NC(=O)/C=C/CNC5(C)CC5)c(F)c4)ccc13)c(=O)ncn2C"
attribute_measured = "IC50"
numeric_result = 18.9

[[record]]
molecule = "CO[C@H]1CC[C@H](NC/C=C/C(=O)Nc2c(F)cc(C(=O)c3cc(CO)c4c(-c5c(C)cc6c(nc(C)n6C)c5Cl)cccn34)cc2F)CC1"
attribute_measured = "IC50"
numeric_result = 25

[[record]]
molecule = "C=Cc1cc(C(=O)c2cc(F)c(NC(=O)/C=C/CNC3(C)CC3)c(F)c2)n2cccc(-c3c(OC)cc4c(nc(C)n4C)c3F)c12 (single isomer, unassigned) [Example 111-2]"
attribute_measured = "IC50"
numeric_result = 17.4

[[record]]
molecule = "CO[C@H]1CC[C@H](NC/C=C/C(=O)Nc2c(F)cc(C(=O)c3ccc4c(-c5c(C(C)C)cc6c(nc(C)n6C)c5Cl)cccn34)cc2F)CC1 (single isomer, unassigned) [Example 71-2]"
attribute_measured = "IC50"
numeric_result = 220

[[record]]
molecule = "CO[C@H]1CC[C@H](NC/C=C/C(=O)Nc2c(F)cc(C(=O)c3ccc4c(-c5c(C)cc6c(nc(COC(=O)/C=C/CN[C@H]7CC[C@H](OC)CC7)n6C)c5Cl)cccn34)cc2F)CC1"
attribute_measured = "IC50"
numeric_result = 34


Q) Recorded IC50 for CCc1nc2c(-c3c(C(F)(F)F)cc4c(nc(C)n4C)c3OC)cccn2c1C(=O)c1cc(F)c(NC(=O)/C=C/CN[C@H]2CC[C@H](OC)CC2)c(F)c1 (single isomer, unassigned) [Example 102-1] , please?
A) 57.2

Q) What about CO[C@H]1CC[C@H](NC/C=C/C(=O)Nc2c(F)cc(C(=O)c3ccc4c(-c5c(C(C)C)cc6c(nc(C)n6C)c5Cl)cccn34)cc2F)CC1 (single isomer, unassigned) [Example 71-1] ?
A) 43

Q) What about CO[C@H]1CC[C@H](NC/C=C/C(=O)Nc2c(F)cc(C(=O)c3ccc4c(-c5c(C(F)(F)F)cc6c(nc(C)n6C)c5Cl)cccn34)cc2F)CC1 (single isomer, unassigned) [Example 32-2] ?
A) 420
